Listing of recorded Kd by entry.
STUDY_SYSTEM: recombinant human KRAS^G12D protein (Homo sapiens, UniProt P01116, G12D)
Sequence (P01116 1-188 isoform P01116-2 G12D): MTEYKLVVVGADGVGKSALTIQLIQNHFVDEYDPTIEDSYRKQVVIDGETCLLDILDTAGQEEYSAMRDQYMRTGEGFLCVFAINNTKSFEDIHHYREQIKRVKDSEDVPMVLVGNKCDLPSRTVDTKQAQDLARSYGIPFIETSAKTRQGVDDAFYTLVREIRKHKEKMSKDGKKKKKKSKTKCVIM
ASSAY_PROTOCOL: Temperature-dependent Fluorescence (TdF) KRAS G12D protein binding assay
EXPERIMENTAL_SETUP: 6 μM KRAS^G12D protein, 10 μM compound, Sypro Orange; Kd calculated from the fluorescent shift

COMPOUND: Oc1cc(-c2c(Cl)cc3c(N4CC5CCC(C4)N5)nc(OCCN4CCOCC4)nc3c2F)c2ccccc2c1
Kd: > 5 µM

INPUT: Please report the measured Kd for CC(C)N1CC(Nc2nc(N3C[C@@H](C)NC[C@@H]3C)c3cc(Cl)c(-c4cc(O)cc5ccccc45)c(F)c3n2)C1
OUTPUT: > 5 µM

INPUT: Please report the measured Kd for Cc1cc(N)nc(-c2c(Cl)cc3c(N4CC5CCC(C4)N5)nc(OC[C@@]45CCCN4C[C@H](F)C5)nc3c2F)c1C(F)(F)F
OUTPUT: < 0.5 µM

INPUT: Please report the measured Kd for CN1CCC2(CCN(c3nc(N4CC5CCC(C4)N5)c4cc(Cl)c(-c5cc(O)cc6ccccc56)c(F)c4n3)C2)C1 (stereo not shown)
OUTPUT: > 5 µM
